- Tested on: GH Release
- experimental-protocol: In vivo GH release in pentobarbital anesthetized rats (serum GH by RIA)
- test-conditions: Table 5; Total Dose 1.0 µg i.v.; anesthetized rats; mean ± SEM, six rats
Where a SMILES comes first, the peptide text is derived from it.
Below, each of the compounds is paired with its reported GH Released value.
value-kind: GH Released (ng/mL)

compound | reported-value
C[C@H](NC(=O)[C@@H](Cc1ccccc1)NC(=O)[C@H](Cc1c[nH]c2ccccc12)NC(=O)[C@H](C)NC(=O)[C@@H](Cc1c[nH]c2ccccc12)NC(=O)[C@@H](N)Cc1c[nH]cn1)C(=O)N[C@@H](CCCCN)C(N)=O [His-DTrp-Ala-Trp-DPhe-Ala-Lys-NH₂] (HELM PEPTIDE1{H.[dW].A.W.[dF].A.K.[am]}$$$$V2.0) | 1965
C[C@H](NC(=O)[C@@H](CC(=O)O)NC(=O)[C@@H](N)Cc1c[nH]cn1)C(=O)N[C@@H](Cc1c[nH]c2ccccc12)C(=O)N[C@H](Cc1ccccc1)C(=O)N[C@@H](CCCCN)C(N)=O [His-DAsp-Ala-Trp-DPhe-Lys-NH₂] (HELM PEPTIDE1{H.[dD].A.W.[dF].K.[am]}$$$$V2.0) | 154
C[C@H](NC(=O)[C@@H](Cc1cccc2ccccc12)NC(=O)[C@@H](N)Cc1c[nH]cn1)C(=O)N[C@@H](Cc1c[nH]c2ccccc12)C(=O)N[C@H](Cc1ccccc1)C(=O)N[C@@H](CCCCN)C(N)=O [His-D^αNal-Ala-Trp-DPhe-Lys-NH₂] (HELM PEPTIDE1{H.[O=C([C@@H](Cc1cccc2ccccc12)N[*:1])[*:2]].A.W.[dF].K.[am]}$$$$V2.0) | 1130
C[C@H](NC(=O)[C@@H](Cc1c[nH]c2ccccc12)NC(=O)[C@@H](N)Cc1c[nH]cn1)C(=O)N[C@@H](Cc1c[nH]c2ccccc12)C(=O)N[C@H](Cc1ccccc1)C(=O)N[C@@H](CCCCN)C(N)=O [His-DTrp-Ala-Trp-DPhe-Lys-NH₂] (HELM PEPTIDE1{H.[dW].A.W.[dF].K.[am]}$$$$V2.0) | 1531
C[C@H](NC(=O)[C@@H](Cc1ccccc1)NC(=O)[C@H](Cc1c[nH]c2ccccc12)NC(=O)[C@H](C)NC(=O)[C@@H](Cc1ccc2ccccc2c1)NC(=O)[C@@H](N)Cc1c[nH]cn1)C(=O)N[C@@H](CCCCN)C(N)=O [His-D^βNal-Ala-Trp-DPhe-Ala-Lys-NH₂] (HELM PEPTIDE1{H.[O=C([C@@H](Cc1ccc2ccccc2c1)N[*:1])[*:2]].A.W.[dF].A.K.[am]}$$$$V2.0) | 1593

###

- Test system: GH Release
- experimental-protocol: In vivo GH release in pentobarbital anesthetized rats (serum GH by RIA)
- test-conditions: Table 5; Total Dose 3.0 µg i.v.; anesthetized rats; mean ± SEM, six rats
Where a SMILES comes first, the peptide text is derived from it.

compound | target-of-assay | GH Released, ng/mL
C[C@H](NC(=O)[C@@H](N)Cc1c[nH]cn1)C(=O)N[C@H](Cc1c[nH]c2ccccc12)C(=O)N[C@@H](C)C(=O)N[C@@H](Cc1c[nH]c2ccccc12)C(=O)N[C@H](Cc1ccccc1)C(=O)N[C@@H](CCCCN)C(N)=O [His-Ala-DTrp-Ala-Trp-DPhe-Lys-NH₂] (HELM PEPTIDE1{H.A.[dW].A.W.[dF].K.[am]}$$$$V2.0) | GH Release | 2588
C[C@H](NC(=O)[C@@H](Cc1cccc2ccccc12)NC(=O)[C@@H](N)Cc1c[nH]cn1)C(=O)N[C@@H](Cc1c[nH]c2ccccc12)C(=O)N[C@H](Cc1ccccc1)C(=O)N[C@@H](CCCCN)C(N)=O [His-D^αNal-Ala-Trp-DPhe-Lys-NH₂] (HELM PEPTIDE1{H.[O=C([C@@H](Cc1cccc2ccccc12)N[*:1])[*:2]].A.W.[dF].K.[am]}$$$$V2.0) | GH Release | 2319
C[C@H](NC(=O)[C@@H](CC(=O)O)NC(=O)[C@@H](N)Cc1c[nH]cn1)C(=O)N[C@@H](Cc1c[nH]c2ccccc12)C(=O)N[C@H](Cc1ccccc1)C(=O)N[C@@H](CCCCN)C(N)=O [His-DAsp-Ala-Trp-DPhe-Lys-NH₂] (HELM PEPTIDE1{H.[dD].A.W.[dF].K.[am]}$$$$V2.0) | GH Release | 155

###

- Test system: GH Release
- experimental-protocol: In vivo GH release in pentobarbital anesthetized rats (serum GH by RIA)
- test-conditions: Table 4; Total Dose .3 µg i.v.; pentobarbital anesthetized rats; sacrificed 10 minutes after final injection; mean ± SEM, six rats
Where a SMILES comes first, the peptide text is derived from it.

compound | GH Released by Compound in Column A
C[C@H](N)C(=O)N[C@@H](Cc1c[nH]cn1)C(=O)N[C@H](Cc1ccccc1)C(=O)N[C@@H](C)C(=O)N[C@@H](Cc1c[nH]c2ccccc12)C(=O)N[C@H](Cc1ccccc1)C(=O)N[C@@H](CCCCN)C(N)=O [AlaHisDPheAlaTrpDPheLysNH₂] (HELM PEPTIDE1{A.H.[dF].A.W.[dF].K.[am]}$$$$V2.0) | 616 ± 74 ng/mL
C[C@H](N)C(=O)N[C@@H](Cc1c[nH]cn1)C(=O)N1CCC[C@@H]1C(=O)N[C@@H](C)C(=O)N[C@@H](Cc1c[nH]c2ccccc12)C(=O)N[C@H](Cc1ccccc1)C(=O)N[C@@H](CCCCN)C(N)=O [AlaHisDProAlaTrpDPheLysNH₂] (HELM PEPTIDE1{A.H.[dP].A.W.[dF].K.[am]}$$$$V2.0) | 262 ± 51 ng/mL
C[C@H](N)C(=O)N[C@@H](Cc1c[nH]cn1)C(=O)N[C@H](Cc1c[nH]c2ccccc12)C(=O)N[C@@H](C)C(=O)N[C@@H](Cc1c[nH]c2ccccc12)C(=O)N[C@H](Cc1ccccc1)C(=O)N[C@@H](CCCCN)C(N)=O [AlaHisDTrpAlaTrpDPheLysNH₂] (HELM PEPTIDE1{A.H.[dW].A.W.[dF].K.[am]}$$$$V2.0) | 901 ± 21 ng/mL
C[C@H](N)C(=O)N[C@@H](Cc1c[nH]cn1)C(=O)N[C@H](Cc1c[nH]cn1)C(=O)N[C@@H](C)C(=O)N[C@@H](Cc1c[nH]c2ccccc12)C(=O)N[C@H](Cc1ccccc1)C(=O)N[C@@H](CCCCN)C(N)=O [AlaHisDHisAlaTrpDPheLysNH₂] (HELM PEPTIDE1{A.H.[dH].A.W.[dF].K.[am]}$$$$V2.0) | 268 ± 54 ng/mL

###

- System: GH Release
- experimental-protocol: In vivo GH release in pentobarbital anesthetized rats (serum GH by RIA)
- test-conditions: Table 5; Total Dose 3.0 µg i.v.; anesthetized rats; mean ± SEM, six rats
Where a SMILES comes first, the peptide text is derived from it. [ ]: non-standard residue; d: D form.

compound | quantity-unit | GH Released
CSC[C@@H](NC(=O)[C@@H](N)Cc1c[nH]cn1)C(=O)N[C@@H](C)C(=O)N[C@@H](Cc1c[nH]c2ccccc12)C(=O)N[C@H](Cc1ccccc1)C(=O)N[C@@H](CCCCN)C(N)=O [His-DCys(SMe)-Ala-Trp-DPhe-Lys-NH₂] (H-H[dC](Me)AW[dF]K-NH2) | ng/mL | 180
C[C@H](NC(=O)[C@@H](Cc1ccccc1)NC(=O)[C@H](Cc1c[nH]c2ccccc12)NC(=O)[C@H](C)NC(=O)[C@@H](Cc1ccc2ccccc2c1)NC(=O)[C@@H](N)Cc1c[nH]cn1)C(=O)N[C@@H](CCCCN)C(N)=O [His-D^βNal-Ala-Trp-DPhe-Ala-Lys-NH₂] (HELM PEPTIDE1{H.[O=C([C@@H](Cc1ccc2ccccc2c1)N[*:1])[*:2]].A.W.[dF].A.K.[am]}$$$$V2.0) | ng/mL | 3337
C[C@H](NC(=O)[C@@H](Cc1ccccc1)NC(=O)[C@H](Cc1c[nH]c2ccccc12)NC(=O)[C@H](C)NC(=O)[C@@H](Cc1c[nH]c2ccccc12)NC(=O)[C@@H](N)Cc1c[nH]cn1)C(=O)N[C@@H](CCCCN)C(N)=O [His-DTrp-Ala-Trp-DPhe-Ala-Lys-NH₂] (HELM PEPTIDE1{H.[dW].A.W.[dF].A.K.[am]}$$$$V2.0) | ng/mL | 4553
C[C@H](NC(=O)[C@@H](Cc1c[nH]c2ccccc12)NC(=O)[C@@H](N)Cc1c[nH]cn1)C(=O)N[C@@H](Cc1c[nH]c2ccccc12)C(=O)N[C@H](Cc1ccccc1)C(=O)N[C@@H](CCCCN)C(N)=O [His-DTrp-Ala-Trp-DPhe-Lys-NH₂] (HELM PEPTIDE1{H.[dW].A.W.[dF].K.[am]}$$$$V2.0) | ng/mL | 2349
